Measured Ki accompanies every entry in the list below.
biological target: Cathepsin D (Homo sapiens, UniProt P07339); assay: Inhibition of cathepsin D activity (substrate peptide […], MALDI-TOF); format: biochemical; conditions: pH 4.1, 37 degrees C., substrate NH3-[…]-CO2, MALDI-TOF; read-out: Cath D Ki
Sequence (P07339 65-412, species assumed): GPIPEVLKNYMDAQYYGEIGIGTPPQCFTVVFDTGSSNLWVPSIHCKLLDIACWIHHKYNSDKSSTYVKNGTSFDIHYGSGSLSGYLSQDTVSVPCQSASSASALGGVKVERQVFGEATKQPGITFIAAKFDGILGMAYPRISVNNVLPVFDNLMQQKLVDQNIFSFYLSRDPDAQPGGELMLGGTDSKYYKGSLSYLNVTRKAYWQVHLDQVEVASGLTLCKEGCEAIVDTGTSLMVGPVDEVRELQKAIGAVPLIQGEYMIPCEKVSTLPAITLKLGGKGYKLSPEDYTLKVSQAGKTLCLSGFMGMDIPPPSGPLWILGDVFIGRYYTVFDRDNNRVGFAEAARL

Record excerpt, results attached:
| compound | Ki |
| --- | --- |
| CSC[C@H](NC(=O)C(C)Cc1nc(C)cs1)C(=O)N[C@H](CC(C)C)[C@@H](O)C[C@@H](C)C(=O)N[C@@H](C(=O)NCC(C)C)C(C)C (stereo partly shown) | < 0.1 µM |
| CSC[C@H](NC(=O)OCc1nc(C)oc1C)C(=O)N[C@H](CC(C)C)[C@@H](O)C[C@@H](C)C(=O)N[C@@H](C(=O)NCC(C)C)C(C)C | < 0.1 µM |

Ki in this record for CSC[C@H](NC(=O)OCc1ccn(C)n1)C(=O)N[C@H](CC(C)C)[C@@H](O)C[C@@H](C)C(=O)N[C@@H](C(=O)NCC(C)C)C(C)C : < 0.1 µM

For record CCSC[C@H](NC(=O)OCc1nc(C)cs1)C(=O)N[C@H](CC(C)C)[C@@H](O)C[C@@H](C)C(=O)N[C@@H](C(=O)NCC(C)C)C(C)C the listed Ki is < 0.1 µM

The compound listed as Cc1nc(COC(=O)N[C@@H](CS(C)(=O)=O)C(=O)N[C@H](CC(C)C)[C@@H](O)C[C@@H](C)C(=O)N[C@@H](C(=O)OCc2ccccc2)C(C)C)c(C)o1 shows Ki equal to 0.1 to 1 µM

Sure, the documented Ki for Cc1csc(CCC(=O)N[C@@H](CS(C)(=O)=O)C(=O)N[C@H](CC(C)C)[C@@H](O)C[C@@H](C)C(=O)N[C@@H](C(=O)NCC(C)C)C(C)C)n1 is 0.1 to 1 µM

// Ki value for Cc1csc(COC(=O)N[C@@H](CS(C)(=O)=O)C(=O)N[C@@H](CC(C)C)[C@@H](O)C[C@@H](C)C(=O)N[C@H]2CCNC2=O)n1 : > 1 µM

Summary for this compound, COCCOCS(=O)(=O)C[C@H](NC(=O)OCc1nc(C)cs1)C(=O)N[C@H](CC(C)C)[C@@H](O)C[C@@H](C)C(=O)N[C@@H](C(=O)NCC(C)C)C(C)C : Ki is 0.1 to 1 µM

Lab note: measured Ki of CSC[C@H](NC(=O)OCc1csc(C)n1)C(=O)N[C@H](CC(C)C)[C@@H](O)C[C@@H](C)C(=O)N[C@@H](C(=O)NCC(C)C)C(C)C was < 0.1 µM

Note to self: Ki recorded for Cc1nc(COC(=O)N[C@@H](CS(C)(=O)=O)C(=O)N[C@H](Cc2ccccc2)[C@@H](O)C[C@@H](C)C(=O)N[C@@H](C(=O)NCC(C)C)C(C)C)c(C)o1 was < 0.1 µM
